test system: UO-31 renal; assay: NCI-60 one-dose screen, 48 h; conditions: 10 µM unless noted
This is part of a sample that, as a whole, favours compounds with a hit. Of some 83,000 tested, about 20% had one in any assay. Active and inactive are the calls of the source. Rule for the calls: active = growth percent below 10; inactive = the rest.
Choose one outcome from this list and give only that: active, inactive

Please let me know the test result on file for `O=[N+]([O-])c1ccc(-c2cc3c(Nc4ccc(OCc5cccc(Cl)c5)c(Cl)c4)ncnc3s2)cc1` . inactive

Please let me know the test result on file for `O=C(NCCOCCOCCOCCNC(=O)c1cc2c(o1)C(=O)c1ccccc1C2=O)NC12CC3CC(CC(C3)C1)C2` . active

Please let me know the test result on file for `CCOC(=O)c1c(C)[nH]c(C(=O)CCC(=O)OC)c1C` . inactive

Please let me know the test result on file for `C=CC(=O)Nc1cccc(C)c1Nc1cc(-c2cccnc2Cc2c(C)c(OC)cc(OC)c2C)ncn1` . inactive

Please let me know the test result on file for `O=C(CCCCCCCn1cc(-c2cccnc2)nn1)Nc1ccccc1-c1ccccc1` . inactive

Please let me know the test result on file for `Cc1nc(C)c(-c2nn3c(-c4cccc(F)c4)nnc3s2)s1` . inactive

Please let me know the test result on file for `COc1cc(/C=C/C(=O)c2ccc(Nc3nc(Nc4ccccc4)nc(Nc4ccc(Cl)cc4)n3)cc2)cc(OC)c1OC` . inactive

Please let me know the test result on file for CNC(=O)NCC1OC(n2cnc3c(NC(=O)Nc4ccccc4)ncnc32)C2OC(C)(C)OC12 (stereo not drawn) . inactive

Please let me know the test result on file for `c1ccc2[nH]c(SSc3nc4ncncc4[nH]3)nc2c1` . inactive

Please let me know the test result on file for `O=C(Nc1ccccc1Cl)OCCN1CCOCC1` . inactive

Please let me know the test result on file for `CCOC(=O)c1c2c(c(C)n1C)-c1nn(Cc3ccc(OC)cc3)cc1CC2` . inactive

Please let me know the test result on file for `C=C1C(=O)O[C@H]2[C@H]1CC/C(COC(=O)/C=C/C(=O)NCc1ccc(Cn3c(=O)sn(-c4ccccc4)c3=O)cc1)=C\CC[C@@]1(C)O[C@@H]21` . inactive

Please let me know the test result on file for `COc1cc(-c2ncn(/C=C\c3nnco3)n2)cc(C(F)(F)F)c1` . inactive
